Consider compounds characterized by their pIC50 with PIK3CA (human).
pIC50 is defined as minus the log10 of a concentration measured in mol/L.

Worked cases, pIC50 given:
SMILES STR: CN[C@@H]1CCC[C@H]1NS(=O)(=O)c1ccc(C)c(-c2cnc(N)c(-c3ccnc(C)c3)n2)c1
PROPERTY MEASURED: pIC50
RECORDED RESULT: 6.14

SMILES STR: Cc1ccc(S(=O)(=O)NCC(C)(C)CO)cc1-c1cnc(N)c(-c2nc(C3CC3)no2)n1
PROPERTY MEASURED: pIC50
RECORDED RESULT: 5.96

SMILES STR: Cc1ncc(-c2nc(-c3cc(S(=O)(=O)NCC(F)(F)F)ccc3C)cnc2N)s1
PROPERTY MEASURED: pIC50
RECORDED RESULT: 7.40

# evaluate next
Inquiry: Give reported pIC50 for `CN[C@H]1CCC[C@@H]1NS(=O)(=O)c1ccc(C)c(-c2cnc(N)c(-c3ccnc(C)c3)n2)c1` (PIK3CA (human))
Reply text: 5.80

The reported measurements were obtained from the Kinase Knowledgebase extract (Sharma et al. 2016).
